- System: SW1990 cells
- protocol.notes: In vitro anti-proliferative SRB assay, SW1990
- Type: cell-based, human
- cond: selectivity index, HMLE vs SW1990
SI (CC50 HMLE/IC50 SW1990) values for the compounds below.

// worked examples, SI (CC50 HMLE/IC50 SW1990) included
>>> value_measured("COc1cccc(OC)c1/C=C/C(=O)c1ccc(C)c(C)c1 [b5]")
"<0.5"
>>> value_measured("COc1cccc(OC)c1/C=C/C(=O)c1ccc(C#N)cc1 [b30]")
"<0.4"

Input line: Fill in the blank: the reported SI (CC50 HMLE/IC50 SW1990) of COc1cccc(OC)c1/C=C/C(=O)c1ccc(F)cc1 [b33] is ____.
Output line: <0.4

Input line: Fill in the blank: the reported SI (CC50 HMLE/IC50 SW1990) of COc1cccc(OC)c1/C=C/C(=O)c1ccccc1 [b1] is ____.
Output line: <0.3
